System: SK-MEL-2
EXPERIMENT: NCI tumour cell line growth inhibition, 48 h
The source made the active and inactive calls. Rule as the data show it: active = GI50 up to about 1.1 µM and inactive = higher.
Catalogue of GI50 values

Check out these entries, answers already filled in.
# COMPOUND, GI50
measured = [
    ("O=C1O[C@H](COC(=O)c2ccccc2)[C@@H](OC(=O)c2ccccc2)C=C1OC(=O)c1ccccc1", "23.5 µM (inactive)"),
    ("COc1cc(N(Cc2ccc3nc(OC)c(OC)nc3c2)Cc2ccc3nc(OC)c(OC)nc3c2)cc(OC)c1OC", "20.9 µM (inactive)"),
    ("NC(Cc1ccc(OCc2ccccc2)cc1)C(=O)NC(Cc1ccccc1)C(=O)Oc1c(Cl)c(Cl)c(Cl)c(Cl)c1Cl (stereo not given)", "13.3 µM (inactive)"),
    ("COc1ccc(NC(=O)CSc2nnc(-c3ccc(/N=C\\c4ccc(Cl)cc4)cc3)o2)cc1", "15 µM (inactive)"),
]

From here, focus on the item given below.
Using the record for Nc1nc(Cl)c(N)c(NCC2(CO)CC(OCc3ccccc3)C2)n1 (stereo not given) , report its GI50.
> 100 µM (inactive)

* * *

Readings of GI50 for the listed compounds
System: MDA-N
EXPERIMENT: NCI tumour cell line growth inhibition, 48 h
The source made the active and inactive calls. No stated cut-off is given here; in the data, active = GI50 up to about 1.1 µM and inactive = higher.

Before answering, review these 4 worked examples.
# COMPOUND, MEASUREMENT_TARGET, GI50
measured = [
    ("O=C(n1[nH]c(=O)n(-c2ccc([N+](=O)[O-])cc2)c1=O)C(Cl)(Cl)Cl", "MDA-N", "> 75 µM (inactive)"),
    ("COC1(OC)N=C(N)C2(C#N)/C(=N/N(C)C)CC(C)C12C#N (stereo not drawn)", "MDA-N", "> 100 µM (inactive)"),
    ("O=c1[nH]nc(-c2ccccc2)n1/N=C\\c1ccccc1", "MDA-N", "> 100 µM (inactive)"),
    ("CC1C(C#N)(C#N)C(C#N)=C(N)C1(Cl)[N+](=O)[O-] (stereo not drawn)", "MDA-N", "9.04 µM (inactive)"),
]

Reported GI50 for Cc1cc(=O)n2nc(CSc3nnc(S)s3)sc2n1 : what is it?
> 100 µM (inactive)

I would be grateful if you could share the reported GI50 for O=C(O)CC(NC(=O)/C(=C/c1ccccc1)NC(=O)c1ccccc1)C(=O)O (stereo not drawn) .
> 100 µM (inactive)

Request the reported GI50 associated with Cc1cc(C)nc(NS(=O)(=O)c2ccc(Nc3c4ccccc4nc4ccc(C(=O)Nc5ccc(S(N)(=O)=O)cc5)cc34)cc2)n1
> 100 µM (inactive)

* * *

Tested on: SNB-19
EXPERIMENT: NCI tumour cell line growth inhibition, 48 h
The source made the active and inactive calls. Rule as the data show it: active = GI50 up to about 1.1 µM and inactive = higher.
The following molecules are shown together with reported GI50 values.

# MOLECULE, GI50
rows = [
    ("O=C1CC(c2ccccc2)=Nc2ccccc2N1", "> 100 µM (inactive)"),
    ("CCOC(=O)C12OC(CCC1=O)C(C(=O)OC)=C2C(=O)OC (stereo unspecified)", "> 10 µM (inactive)"),
    ("C=C1C[C@@H](O)[C@@H](Br)C(C)(C)[C@]12CCC(C)(Cl)C(Br)C2 (stereo partly specified)", "> 31.6 µM (inactive)"),
    ("COc1cc2c(cc1OC)CN1CCc3ccccc3CC1C2 (stereo unspecified)", "52 µM (inactive)"),
    ("Cc1cc(C)cc(NC(=O)CCC(=O)C2CCC/C2=N\\NC(=O)C(=O)NN)c1 (stereo unspecified)", "> 100 µM (inactive)"),
]

Returns the measured GI50 for the input molecule. Input: O=C(n1[nH]c(=O)n(-c2ccc([N+](=O)[O-])cc2)c1=O)C(Cl)(Cl)Cl
> 75 µM (inactive)

GI50 lookup needed for O=C1OCC(C(=O)c2cccc(O)c2)C1=O (stereo unspecified) , thanks.
> 100 µM (inactive)

Quick check: GI50 of Nc1ccc(OCCCc2c(-c3ccccc3)[nH]c(N)nc2=O)cc1 ?
67.6 µM (inactive)
